viability, T/C values, listed per item
# Test system: 379773-124-R-J2-PDC spheroid viability
# protocol description: Anticancer human tumor 379773-124-R-J2-PDC patient-derived endometrial carcinoma cell line growth inhibition [POLQ]
# experimental setup: second compound 1 µM; first compound 0.1 µM; active compounds read low; spheroids with HUVEC and MSC

Which viability, T/C is reported with 379773-124-R-J2-PDC spheroid viability for this entry: COc1cc(C2c3cc4c(cc3C(OC3OC5COC(C)OC5C(O)C3O)C3COC(=O)C23)OCO4)cc(OC)c1O (stereo not drawn) + Nc1ccc(C#CCN(C(=O)Cc2ncc(C(F)(F)F)cc2C(F)(F)F)c2ccc(F)cc2)nn1 ? 96.2%

Which viability, T/C is reported with 379773-124-R-J2-PDC spheroid viability for this entry: COc1cccc(OCCCN)c1-c1cc(Nc2cnc(C#N)cn2)n[nH]1 + COC1C(OC(N)=O)C(O)C(Oc2ccc3c(O)c(NC(=O)c4ccc(O)c(CC=C(C)C)c4)c(=O)oc3c2C)OC1(C)C ? 2%

Next:
Which viability, T/C is reported with 379773-124-R-J2-PDC spheroid viability for this entry: COc1cc2cc(C(=O)CCC(=O)O)sc2cc1OC + Cc1cccc(N(C)C(=O)C2C(O)CCN2c2nc(C)cc(C(F)(F)F)c2C#N)c1 ? 103%

* * *

# System: 379773-124-R-J2-PDC spheroid viability
# protocol description: Anticancer human tumor 379773-124-R-J2-PDC cell line growth inhibition [POLQ]; active = viability on the fitted dose curve at most 10% of control; inactive = the rest;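 note: spheroids exposed to drugs for seven days before readout; percent viability relative to DMSO vehicle control taken as 100%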
# experimental setup: second compound 0.1 µM; first compound 10 µM; spheroids with HUVEC and MSC
Lab note: assign the record to one of active, inactive

How was O=c1[nH]cc(F)c(=O)[nH]1 + Cc1cccc(N(C)C(=O)C2C(O)CCN2c2nc(C)cc(C(F)(F)F)c2C#N)c1 classified in this test? inactive

How was O=C(Nc1ccc(O)c(NS(=O)(=O)c2ccc(F)cc2)c1)c1ccc(-c2ccccc2)cc1 + Nc1ccc(C#CCN(C(=O)Cc2ncc(C(F)(F)F)cc2C(F)(F)F)c2ccc(F)cc2)nn1 classified in this test? inactive

Read the next record carefully.
How was Nc1ccn(C2OC(CO)C(O)C2(F)F)c(=O)n1 (stereo not drawn) + COC1C(OC(N)=O)C(O)C(Oc2ccc3c(O)c(NC(=O)c4ccc(O)c(CC=C(C)C)c4)c(=O)oc3c2C)OC1(C)C classified in this test? active

* * *

# Test system: 379773-124-R-J2-PDC spheroid viability
# protocol description: Anticancer human tumor 379773-124-R-J2-PDC cell line growth inhibition [POLQ];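 note: spheroids exposed to drugs for seven days before readout; percent viability relative to DMSO vehicle control taken as 100%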
# experimental setup: second compound 10 µM; first compound 1 µM; active compounds read low; spheroids with HUVEC and MSC
# Protocol: Multicellular complex tumor spheroid response to Polymerase (POL) inhibitors (novobiocin, ART-558, RP6685) in combination with a variety of drugs and investigational agents in selected tumor cell lines The POL inhibitors (novobiocin, ART-558, and RP6685) were evaluated both individually and in combination with standard of care and investigational anticancer small molecules within a complex spheroid model of solid tumors. . […]
viability, T/C values, listed per item

Which viability, T/C is reported with 379773-124-R-J2-PDC spheroid viability for this entry: CCc1c2c(nc3ccc(O)cc13)-c1cc3c(c(=O)n1C2)COC(=O)[C@]3(O)CC + Nc1ccc(C#CCN(C(=O)Cc2ncc(C(F)(F)F)cc2C(F)(F)F)c2ccc(F)cc2)nn1 ? 0.9%

Which viability, T/C is reported with 379773-124-R-J2-PDC spheroid viability for this entry: CC1COCCN1c1cc(C2(S(C)(=N)=O)CC2)nc(-c2ccnc3[nH]ccc23)n1 (stereo not given) + Nc1ccc(C#CCN(C(=O)Cc2ncc(C(F)(F)F)cc2C(F)(F)F)c2ccc(F)cc2)nn1 ? 86.4%

Which viability, T/C is reported with 379773-124-R-J2-PDC spheroid viability for this entry: COc1cc(C2c3cc4c(cc3C(OC3OC5COC(C)OC5C(O)C3O)C3COC(=O)C23)OCO4)cc(OC)c1O (stereo not given) + COC1C(OC(N)=O)C(O)C(Oc2ccc3c(O)c(NC(=O)c4ccc(O)c(CC=C(C)C)c4)c(=O)oc3c2C)OC1(C)C ? 56.3%

Which viability, T/C is reported with 379773-124-R-J2-PDC spheroid viability for this entry: CCc1c2c(nc3ccc(O)cc13)-c1cc3c(c(=O)n1C2)COC(=O)[C@]3(O)CC + COC1C(OC(N)=O)C(O)C(Oc2ccc3c(O)c(NC(=O)c4ccc(O)c(CC=C(C)C)c4)c(=O)oc3c2C)OC1(C)C ? 0.49%

Which viability, T/C is reported with 379773-124-R-J2-PDC spheroid viability for this entry: CC1COCCN1c1cc(-c2ccnn2C)c2ccnc(-c3ccn[nH]3)c2n1 (stereo not given) + Nc1ccc(C#CCN(C(=O)Cc2ncc(C(F)(F)F)cc2C(F)(F)F)c2ccc(F)cc2)nn1 ? 8.24%

Which viability, T/C is reported with 379773-124-R-J2-PDC spheroid viability for this entry: COc1ccc([C@@H](O)c2cc(-c3ncnc4cc(N5CCOCC5)ccc34)c(F)cc2Cl)nn1 + Nc1ccc(C#CCN(C(=O)Cc2ncc(C(F)(F)F)cc2C(F)(F)F)c2ccc(F)cc2)nn1 ? 85.9%

Which viability, T/C is reported with 379773-124-R-J2-PDC spheroid viability for this entry: Nc1ccn(C2OC(CO)C(O)C2(F)F)c(=O)n1 (stereo not given) + COC1C(OC(N)=O)C(O)C(Oc2ccc3c(O)c(NC(=O)c4ccc(O)c(CC=C(C)C)c4)c(=O)oc3c2C)OC1(C)C ? 8.67%

Which viability, T/C is reported with 379773-124-R-J2-PDC spheroid viability for this entry: COc1cccc(OCCCN)c1-c1cc(Nc2cnc(C#N)cn2)n[nH]1 + COC1C(OC(N)=O)C(O)C(Oc2ccc3c(O)c(NC(=O)c4ccc(O)c(CC=C(C)C)c4)c(=O)oc3c2C)OC1(C)C ? 1.39%

Which viability, T/C is reported with 379773-124-R-J2-PDC spheroid viability for this entry: CC(C)n1c(=O)n(C)c2cnc3cc(F)c(-c4ccc(OCCCN5CCCCC5)nc4)cc3c21 + COC1C(OC(N)=O)C(O)C(Oc2ccc3c(O)c(NC(=O)c4ccc(O)c(CC=C(C)C)c4)c(=O)oc3c2C)OC1(C)C ? 72.2%

Which viability, T/C is reported with 379773-124-R-J2-PDC spheroid viability for this entry: C=CCn1c(=O)c2cnc(Nc3ccc(N4CCN(C)CC4)cc3)nc2n1-c1cccc(C(C)(C)O)n1 + Nc1ccc(C#CCN(C(=O)Cc2ncc(C(F)(F)F)cc2C(F)(F)F)c2ccc(F)cc2)nn1 ? 2.81%

* * *

# Test system: 379773-124-R-J2-PDC spheroid viability
# protocol description: Anticancer human tumor 379773-124-R-J2-PDC cell line growth inhibition [POLQ]; active means viability on the fitted dose curve at most 10% of control; inactive means the rest;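 note: spheroids exposed to drugs for seven days before readout; percent viability relative to DMSO vehicle control taken as 100%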
# experimental setup: second compound 0.1 µM; first compound 0.1 µM; spheroids with HUVEC and MSC
Lab note: assign the record to one of active, inactive

Use these answered entries as a reference point.
How was COc1cc(C2c3cc4c(cc3C(OC3OC5COC(C)OC5C(O)C3O)C3COC(=O)C23)OCO4)cc(OC)c1O (stereo not drawn) + Cc1cccc(N(C)C(=O)C2C(O)CCN2c2nc(C)cc(C(F)(F)F)c2C#N)c1 classified in this test? inactive

How was Cn1ncnc1[C@H]1c2n[nH]c(=O)c3cc(F)cc(c23)N[C@@H]1c1ccc(F)cc1 + Cc1cccc(N(C)C(=O)C2C(O)CCN2c2nc(C)cc(C(F)(F)F)c2C#N)c1 classified in this test? inactive

Read the next record carefully.
How was CCc1c2c(nc3ccc(O)cc13)-c1cc3c(c(=O)n1C2)COC(=O)[C@]3(O)CC + COC1C(OC(N)=O)C(O)C(Oc2ccc3c(O)c(NC(=O)c4ccc(O)c(CC=C(C)C)c4)c(=O)oc3c2C)OC1(C)C classified in this test? active

* * *

# System: 379773-124-R-J2-PDC spheroid viability
# protocol description: Anticancer human tumor 379773-124-R-J2-PDC cell line growth inhibition [POLQ];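 note: spheroids exposed to drugs for seven days before readout; percent viability relative to DMSO vehicle control taken as 100%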
# experimental setup: second compound 0.1 µM; first compound 0.316 µM; active compounds read low; spheroids with HUVEC and MSC
readout name: viability, T/C

Requested field: viability, T/C. Item: CC1COCCN1c1cc(C2(S(C)(=N)=O)CC2)nc(-c2ccnc3[nH]ccc23)n1 (stereo unspecified) + Cc1cccc(N(C)C(=O)C2C(O)CCN2c2nc(C)cc(C(F)(F)F)c2C#N)c1 79.7%

Requested field: viability, T/C. Item: COc1cc2cc(C(=O)CCC(=O)O)sc2cc1OC + COC1C(OC(N)=O)C(O)C(Oc2ccc3c(O)c(NC(=O)c4ccc(O)c(CC=C(C)C)c4)c(=O)oc3c2C)OC1(C)C 90.2%

Requested field: viability, T/C. Item: CC1COCCN1c1cc(-c2ccnn2C)c2ccnc(-c3ccn[nH]3)c2n1 (stereo unspecified) + Cc1cccc(N(C)C(=O)C2C(O)CCN2c2nc(C)cc(C(F)(F)F)c2C#N)c1 16.9%

---
Requested field: viability, T/C. Item: CNCc1ccc(-c2[nH]c3cc(F)cc4c3c2CCNC4=O)cc1 + COC1C(OC(N)=O)C(O)C(Oc2ccc3c(O)c(NC(=O)c4ccc(O)c(CC=C(C)C)c4)c(=O)oc3c2C)OC1(C)C 90.5%

Requested field: viability, T/C. Item: COc1cccc(OCCCN)c1-c1cc(Nc2cnc(C#N)cn2)n[nH]1 + Nc1ccc(C#CCN(C(=O)Cc2ncc(C(F)(F)F)cc2C(F)(F)F)c2ccc(F)cc2)nn1 2.25%

Requested field: viability, T/C. Item: CC1COCCN1c1cc(C2(O)CC3CCC(C2)O3)c2cnn(-c3ccn[nH]3)c2n1 (stereo unspecified) + Nc1ccc(C#CCN(C(=O)Cc2ncc(C(F)(F)F)cc2C(F)(F)F)c2ccc(F)cc2)nn1 16%

Requested field: viability, T/C. Item: C=CC(=O)N1CCN(c2nc(=O)n(-c3c(C)ccnc3C(C)C)c3nc(-c4c(O)cccc4F)c(F)cc23)C(C)C1 (stereo unspecified) + Cc1cccc(N(C)C(=O)C2C(O)CCN2c2nc(C)cc(C(F)(F)F)c2C#N)c1 87.7%

Requested field: viability, T/C. Item: CCc1cc2c(N3CCc4c(cc(Cn5ccnc5)cc4-c4cn(C)nc4C(F)(F)F)C3=O)ccnc2c(OC)n1 + Cc1cccc(N(C)C(=O)C2C(O)CCN2c2nc(C)cc(C(F)(F)F)c2C#N)c1 64.3%

Requested field: viability, T/C. Item: CCc1c2c(nc3ccc(O)cc13)-c1cc3c(c(=O)n1C2)COC(=O)[C@]3(O)CC + Cc1cccc(N(C)C(=O)C2C(O)CCN2c2nc(C)cc(C(F)(F)F)c2C#N)c1 2%

Ref: PubChem BioAssay AID1963848
